MIC listing for selected compounds.
System: Staphylococcus epidermidis ATCC 12228
Assay: Antibacterial microdilution broth method
Assay type: cell-based
Conditions: Staphylococcus epidermidis, ATCC12228; Mueller–Hinton broth; read-out: MIC S. epidermidis ATCC 12228

- compound: "NC(=NNC(=S)N1CCCC1)c1cccc(N2CCCC2)n1"
  reading-unit: "µg/mL"
  MIC: 0.49
- compound: "NC(=NNC(=S)N1CCCC1)c1cccc(N2CCCCC2)n1"
  reading-unit: "µg/mL"
  MIC: 0.49
- compound: "O=C(O)c1cn(C2CC2)c2cc(N3CCNCC3)c(F)cc2c1=O [CIP, ciprofloxacin, reference compound]"
  reading-unit: "µg/mL"
  MIC: 0.49
- compound: "NC(=NNC(=S)N1CCOCC1)c1cccc(Oc2ccccc2)n1"
  reading-unit: "µg/mL"
  MIC: 31.3
- compound: "NC(=NNC(=S)N1CCOCC1)c1cccc(N2CCCCC2)n1"
  reading-unit: "µg/mL"
  MIC: 0.98
- compound: "NC(=NNC(=S)N1CCOCC1)c1cccc(N2CCCC2)n1"
  reading-unit: "µg/mL"
  MIC: 1.95
- compound: "NC(=NNC(=S)N1CCCC1)c1cccc(Oc2ccccc2)n1"
  reading-unit: "µg/mL"
  MIC: 0.49

----------
MIC listing for selected molecules.
System: Staphylococcus aureus ATCC 25923
Assay: Antibacterial microdilution broth method
Format: cell-based
Settings: Staphylococcus aureus, ATCC25923; Mueller–Hinton broth; read-out: MIC S. aureus ATCC 25923
assay-metric: MIC (µg/mL)

- molecule: "NC(=NNC(=S)N1CCOCC1)c1cccc(N2CCCCC2)n1"
  tested-on: "Staphylococcus aureus ATCC 25923"
  assay-value: 1.95
- molecule: "NC(=NNC(=S)N1CCCC1)c1cccc(N2CCCC2)n1"
  tested-on: "Staphylococcus aureus ATCC 25923"
  assay-value: 0.49
- molecule: "NC(=NNC(=S)N1CCOCC1)c1cccc(N2CCCC2)n1"
  tested-on: "Staphylococcus aureus ATCC 25923"
  assay-value: 3.9
- molecule: "NC(=NNC(=S)N1CCCC1)c1cccc(Oc2ccccc2)n1"
  tested-on: "Staphylococcus aureus ATCC 25923"
  assay-value: 0.98
- molecule: "NC(=NNC(=S)N1CCOCC1)c1cccc(Oc2ccccc2)n1"
  tested-on: "Staphylococcus aureus ATCC 25923"
  assay-value: 250
- molecule: "NC(=NNC(=S)N1CCCC1)c1cccc(N2CCCCC2)n1"
  tested-on: "Staphylococcus aureus ATCC 25923"
  assay-value: 0.49
- molecule: "O=C(O)c1cn(C2CC2)c2cc(N3CCNCC3)c(F)cc2c1=O [CIP, ciprofloxacin, reference compound]"
  tested-on: "Staphylococcus aureus ATCC 25923"
  assay-value: 0.49

----------
MIC listing for selected molecules.
System: Escherichia coli ATCC 25922
Assay: Antibacterial microdilution broth method
Format: cell-based
Conditions: ATCC25922, Mueller–Hinton broth, read-out: MIC E. coli ATCC 25922

- smiles-notation: "NC(=NNC(=S)N1CCCC1)c1cccc(Oc2ccccc2)n1"
  MIC: "1000 µg/mL"
- smiles-notation: "NC(=NNC(=S)N1CCOCC1)c1cccc(Oc2ccccc2)n1"
  MIC: "> 1000 µg/mL"
- smiles-notation: "NC(=NNC(=S)N1CCCC1)c1cccc(N2CCCC2)n1"
  MIC: "> 1000 µg/mL"
- smiles-notation: "NC(=NNC(=S)N1CCOCC1)c1cccc(N2CCCCC2)n1"
  MIC: "> 1000 µg/mL"
- smiles-notation: "NC(=NNC(=S)N1CCOCC1)c1cccc(N2CCCC2)n1"
  MIC: "> 1000 µg/mL"
- smiles-notation: "NC(=NNC(=S)N1CCCC1)c1cccc(N2CCCCC2)n1"
  MIC: "> 1000 µg/mL"

----------
Tested on: HaCaT cells
Experiment: Cytotoxic activity, sulforhodamine B method
Details: MTT and sulforhodamine B methods together
assay-metric: cytotoxicity against noncancer cells (in words)

- molecule: "NC(=NNC(=S)N1CCCC1)c1cccc(N2CCCC2)n1 [Compound 5]"
  assay-value: "no cytotoxicity"
- molecule: "NC(=NNC(=S)N1CCCC1)c1cccc(N2CCCCC2)n1 [Compound 7]"
  assay-value: "no cytotoxicity"
- molecule: "NC(=NNC(=S)N1CCOCC1)c1cccc(N2CCCC2)n1 [Compound 4]"
  assay-value: "no cytotoxicity"
